- Assay protocol: folding enthalpy; higher = less favourable; fluorescence melt of hairpins on a sequencing array, two-state fit
- Experimental setup: sodium 0.088 M
Label y when folding enthalpy is at or above -30 kcal/mol; otherwise label n.

GGGTTCGAAAGAAGTCCC ((((((....)))..))) :: y
GCATCCGCGAAAGCGTGC (((..(((....)))))) :: y
GGTCGTGGAAACGTGACC ((((..(....)..)))) :: y
GACTCACGAAAGTGGGTC (((.(((....))).))) :: n
GGTCACGAAAGTGTGACC ((((((....)))..))) :: n
GCATAGCGAAAGCCATGC ((((.((....)).)))) :: y
AGAAGCAGAAATGGTTCT ((((.((....)).)))) :: y
GAAAGGGGAAACCCCTTC (((.(((....))).))) :: y
GGTCCCGAAAGGGCACC ((((((....))).))) :: y
GACCAAGGAAACTTGGTC (((((((....))))))) :: n
GGCTTGGGAAACCAGGTC (.(.(((....))).).) :: y
GATCACAGAGGTGATC ((((((....)))))) :: y
GTAGTCGGAAACGACCAC ((.((((....)))).)) :: y
GTCGCCGAAAGGCAGAC ((((((....))).))) :: y
GATCCTGCCAAGGATC ((((((....)))))) :: n
GCCCGTGCGAAAGCAGGC (((..(((....)))))) :: y
GAGGATGGAAACATTCTC (((.(((....))).))) :: y
GGTCTAGGAAACTAGGCC ((.((((....)))).)) :: n
GCGAAAGTCGC ((((...)))) :: y
GCGCCTCGAAAGAGACGC (((.(((....))).))) :: y
GCGTCCGAAAGGAACGC ((((((....))).))) :: n
GATCGGAGGCCGATC ((((((...)))))) :: n
GAGCACGGAAACACGCTC ((((..(....)..)))) :: y
GATCGTAGAACGATC ((((((...)))))) :: n
GCAAGCGAAAGCTGTGC ((((((....))).))) :: y
GAGTCCGGAAACAGACTC (((((.(....).))))) :: n
GATCTATCGATAGATC ((((((....)))))) :: n
GGGCCTGGAAACGGGCCC (((((.(....).))))) :: n
GCTAGCGAAAGCTGTAGC ((((((....)))..))) :: y
GACGCCGGAAACGGCGCC (.(((((....))))).) :: y
GCCTCCGGAAACAGAGGC (((((.(....).))))) :: n
GATCTGTGCCAGATC ((((((...)))))) :: n
GAGCAACGAAAGTTCTC (((.(((....)))))) :: y
GATATTGGAAACGATATC (((((.(....).))))) :: n
GTCCACGAAAGTGGTGAC ((((((....)))..))) :: y
GCTGGAGGAAACCCCAGC (((((.(....).))))) :: n
GGGTGGGCGAAAGCCCCC (((..(((....)))))) :: y
GGGTTCGGAAACGAGCCC (((.(((....))).))) :: n
GATCCTACCGAGGATC ((((((....)))))) :: n
GCTTCAGGAAACTGAAGC (((((((....))))))) :: n
GGTCGTGGAAACACGATC (.(((((....))))).) :: n
GCCTAGCGAAAGCTCGGC (((.(((....))).))) :: n
GTAAGACGAAAGTCGTAC (((.(((....))).))) :: y
GATCAAGGCATTGATC ((((((....)))))) :: n
GCCGAGACGAAAGTCGGC (((..(((....)))))) :: y
GCGTTCGAAAGAAGGCGC ((((((....)))..))) :: n
GTAATACCGAAAGGTTAC (((..(((....)))))) :: y

* * *

- Assay protocol: folding enthalpy; higher = less favourable; fluorescence melt of hairpins on a sequencing array, two-state fit
- Experimental setup: sodium 0.088 M
Label Fulfilled when folding enthalpy is at or above -20 kcal/mol; otherwise label Not fulfilled.

GATCGTGAAACGATC ((((((...)))))) :: Not fulfilled
GATCCTATAAAGGATC ((((((....)))))) :: Not fulfilled
GGTATGCGAAAGCAACC (((.(((....)))))) :: Fulfilled
GATCTTTTGGAAGATC ((((((....)))))) :: Not fulfilled
GGTGAAGGAAACTTCACC (((((((....))))))) :: Not fulfilled
GGGTCAGCGAAAGCTCCC (((..(((....)))))) :: Fulfilled
GATCTAGTATTAGATC ((((((....)))))) :: Not fulfilled
GCCACGGGAAACCGTGAC (.(((((....))))).) :: Fulfilled
GAAACGGGAAACCGCTTC (((.(((....))).))) :: Not fulfilled
GAGCAGGCGAAAGCCCTC (((..(((....)))))) :: Fulfilled
GTGGTCGAAAGACGCCAC ((((((....)))..))) :: Fulfilled
GCACATCGAAAGATTTGC (((.(((....))).))) :: Not fulfilled
GGCCCCGAAAGGGAGCC ((((((....))).))) :: Not fulfilled
GATGCGACGAAAGTCATC (((..(((....)))))) :: Fulfilled
GGCCAGAAATGGCC (((((....))))) :: Not fulfilled
GCACTGCGAAAGCACTGC (((.(((....))).))) :: Not fulfilled
GCCTGCGAAAGCATGGC ((((((....))).))) :: Not fulfilled
GATCGAGATGTCGATC ((((((....)))))) :: Not fulfilled
GCAACTGGAAACAATTGC ((((.((....)).)))) :: Not fulfilled
GTGGTAGGAAACTGCTAC ((.(.((....)).).)) :: Fulfilled
GCCCTCGAAAGAGCTGGC ((((((....)))..))) :: Not fulfilled
GTGGGGGGAAACCCCCGC (.(((((....))))).) :: Fulfilled
GCGAATACGAAAGTACGC (((..(((....)))))) :: Not fulfilled

* * *

- Assay protocol: melting temperature; fluorescence melt of hairpins on a sequencing array, two-state fit, raised by 9.35 °C to match UV melts
- Experimental setup: sodium 0.088 M
Param label: returns true (1) when Tm < 50 °C, returns false (0) otherwise, including exact equality.

GTAGGAGGAAACCCCTAC (((((.(....).))))) :: true (1)
GTCGCCGAAAGGCTTGAC ((((((....)))..))) :: true (1)
GGGATCGAAAGATACCC ((((((....))).))) :: false (0)
GATCACAGAGTGATC ((((((...)))))) :: false (0)

* * *

- Assay protocol: melting temperature; fluorescence melt of hairpins on a sequencing array, two-state fit, raised by 9.35 °C to match UV melts
- Experimental setup: sodium 0.088 M
Endpoint label: Tm (°C)

GAGGTTACGAAAGTACTC (((..(((....)))))) :: 27.9
GGACCCGAAAGGGCTCC ((((((....))).))) :: 58.6
GCTCTGCGAAAGCAACGC ((..(((....)))..)) :: 31.8
GTCGCCGAAAGGCAGAC ((((((....))).))) :: 61.7
GATCAAACTTTTGATC ((((((....)))))) :: 45.9
GCGCCGCGAAAGCAGAGC ((.(.((....)).).)) :: 66.7

* * *

- Assay protocol: folding enthalpy; higher = less favourable; fluorescence melt of hairpins on a sequencing array, two-state fit
- Experimental setup: sodium 0.088 M
Label MET when folding enthalpy is at or above -30 kcal/mol; otherwise label NOT MET.

GATCTAGAATAGATC ((((((...)))))) :: NOT MET
ACGGAGAAATCCGT (((((....))))) :: MET
GCGTGCGGAAACGCGTGC ((..(((....)))..)) :: MET
GATCGAGTATCGATC ((((((...)))))) :: NOT MET
GCAGTGCGAAAGCAGAGC ((..(((....)))..)) :: MET
GATCTGGGAAACCAGGTC ((.((((....)))).)) :: MET
GATTGGCGAAAGCCCATC (((.(((....))).))) :: MET
GTATGGGGAAACTCGTAC (((.(.(....).).))) :: MET
GAAACCCGAAAGGGGTTC (((.(((....))).))) :: MET
GCGTGCGAAAGCAGCCGC ((((((....)))..))) :: MET
GATCGGGGAAACTCGGTC ((.((.(....).)).)) :: MET
GATCAAGCACTTGATC ((((((....)))))) :: NOT MET
GGCCCTGGAAACGGGGCC (((((.(....).))))) :: NOT MET
GTGCAAGGAAACCTGCAC (((((.(....).))))) :: NOT MET
GTTAGCACGAAAGTGAAC (((..(((....)))))) :: MET
GCGCTTGCGAAAGCACGC (((..(((....)))))) :: MET
GCGTCACGAAAGTGCGC (((.(((....)))))) :: NOT MET
CGTGTCGGAAACGAGACG (((.(((....))).))) :: NOT MET
GTGGACGAAAGTCTCAC ((((((....))).))) :: MET
GATCGTTTGGACGATC ((((((....)))))) :: NOT MET
GTCCTTGGAAACAGGGAC ((((.((....)).)))) :: NOT MET
GCCATGCGAAAGCTTAGC ((.(.((....)).).)) :: MET
GCTGTCGAAAGACGTAGC ((((((....)))..))) :: MET
GTGATCGAAAGATAGCAC ((((((....)))..))) :: MET
